Values from patent US20230373939A1

# target-or-system: F508del in NIH 3T3 cells (Homo sapiens, UniProt P13569, DEL508-508)
# Construct: expressed in transfected cells
# Sequence (P13569 with tags, fused parts or gaps DEL508-508): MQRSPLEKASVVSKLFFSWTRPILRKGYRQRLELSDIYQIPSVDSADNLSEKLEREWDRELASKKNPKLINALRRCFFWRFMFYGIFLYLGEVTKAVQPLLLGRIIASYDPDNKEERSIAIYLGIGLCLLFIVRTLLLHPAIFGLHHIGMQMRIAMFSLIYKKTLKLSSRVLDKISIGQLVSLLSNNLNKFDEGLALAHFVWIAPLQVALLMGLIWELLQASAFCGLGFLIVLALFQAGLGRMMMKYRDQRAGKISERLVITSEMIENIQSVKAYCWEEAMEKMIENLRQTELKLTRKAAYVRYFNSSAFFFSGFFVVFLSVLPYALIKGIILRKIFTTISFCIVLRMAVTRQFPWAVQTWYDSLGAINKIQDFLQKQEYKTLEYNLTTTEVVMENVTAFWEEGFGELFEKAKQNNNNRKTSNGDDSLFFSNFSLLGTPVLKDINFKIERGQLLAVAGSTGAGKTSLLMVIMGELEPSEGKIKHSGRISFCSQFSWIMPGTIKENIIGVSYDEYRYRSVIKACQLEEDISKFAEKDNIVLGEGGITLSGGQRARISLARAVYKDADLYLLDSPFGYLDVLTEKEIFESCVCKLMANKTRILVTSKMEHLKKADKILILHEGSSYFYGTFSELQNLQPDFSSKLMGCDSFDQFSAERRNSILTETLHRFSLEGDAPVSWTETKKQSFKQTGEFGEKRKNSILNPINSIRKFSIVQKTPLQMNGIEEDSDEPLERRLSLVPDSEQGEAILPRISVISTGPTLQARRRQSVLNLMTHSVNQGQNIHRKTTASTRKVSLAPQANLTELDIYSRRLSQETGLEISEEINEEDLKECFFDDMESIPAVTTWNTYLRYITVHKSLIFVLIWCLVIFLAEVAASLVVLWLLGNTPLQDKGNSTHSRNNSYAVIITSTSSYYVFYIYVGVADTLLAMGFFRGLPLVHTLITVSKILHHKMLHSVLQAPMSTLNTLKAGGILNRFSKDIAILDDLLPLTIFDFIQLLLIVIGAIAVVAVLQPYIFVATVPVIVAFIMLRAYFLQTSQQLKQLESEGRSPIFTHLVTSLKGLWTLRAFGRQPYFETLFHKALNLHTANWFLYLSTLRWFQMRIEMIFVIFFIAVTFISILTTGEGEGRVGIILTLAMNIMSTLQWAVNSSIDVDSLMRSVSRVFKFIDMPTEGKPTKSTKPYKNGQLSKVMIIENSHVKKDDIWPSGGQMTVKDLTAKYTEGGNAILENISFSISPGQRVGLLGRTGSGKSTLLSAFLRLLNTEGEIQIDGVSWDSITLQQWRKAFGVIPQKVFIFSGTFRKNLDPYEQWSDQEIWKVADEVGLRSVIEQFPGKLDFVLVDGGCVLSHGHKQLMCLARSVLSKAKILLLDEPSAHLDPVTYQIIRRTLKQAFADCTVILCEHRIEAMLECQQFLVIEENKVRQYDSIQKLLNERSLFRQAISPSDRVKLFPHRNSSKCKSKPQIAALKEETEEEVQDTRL
# experimental-details: 3T3 assay: membrane potential optical assay for F508del correction
# Type: cell-based
# protocol-conditions: NIH3T3; NIH 3T3 cells, F508del; read-out: 3T3 Max Activity (%)
value-kind: Emax

// solved cases for Emax follow
O=C(c1sc(NS(=O)(=O)c2ccccc2)nc1-c1ccccc1)N1CCCCC1 [Compound 34]	< 30%
CCCc1ccc(NS(=O)(=O)c2ccccc2)nc1-c1ccc(C)cc1 [Compound 140]	> 60%
O=S(=O)(Nc1ccnn1CC1CC1)c1ccccc1 [Compound 78]	< 30%
Cc1ccc(C)c(-c2nc(NS(=O)(=O)c3ccccc3)ccc2C)c1 [Compound 138]	> 60%
O=S(=O)(Nc1cc(OCc2ccccc2)nc(-c2ccccc2)n1)c1ccccc1 [Compound 132]	30 to 60%

So what's the measured Emax for this one? COc1ccccc1-c1cn(Cc2ccccc2)nc1NS(=O)(=O)c1ccccc1 [Compound 113]
< 30%

Repeat for the following compound: O=S(=O)(Nc1cc(Oc2ccccc2)cc(-c2ccccc2)n1)c1ccccc1 [Compound 136]
> 60%

Param item: O=S(=O)(Nc1ccnn1C1CCCCC1)c1ccccc1 [Compound 79]
< 30%

Try the compound Cc1cc(C)c(-n2nc(NS(=O)(=O)c3ccccc3)cc2-c2ccccc2C)c(C)c1 [Compound 62]
> 60%

Try the compound COc1cccc(-c2cn(-c3cccc(Cl)c3)nc2NS(=O)(=O)c2ccccc2)c1 [Compound 91]
30 to 60%

Another compound to check: Cc1cc(NS(=O)(=O)c2ccccc2)nc(-c2ccc(C)cc2C)c1 [Compound 152]
> 60%
